Origin of the recorded values: patent US8546085B2

# tgt: TAS2R44 (Homo sapiens, UniProt P59538, L162M)
# Construct: The full length gene of human TAS2R44 was amplified by polymerase chain reaction (PCR) using gene-specific primers that span the entire coding region; RSS tag (first 45 amino acids of rat somatostatin receptor subtype 3, plus EcoRI site) (N); expressed in transfected cells; host or cells: HEK293T/Galpha16-gustducin 44 cells, stably transfected with pcDNA3.1Zeo-TAS2R44
# Sequence (P59538 with tags, fused parts or gaps L162M): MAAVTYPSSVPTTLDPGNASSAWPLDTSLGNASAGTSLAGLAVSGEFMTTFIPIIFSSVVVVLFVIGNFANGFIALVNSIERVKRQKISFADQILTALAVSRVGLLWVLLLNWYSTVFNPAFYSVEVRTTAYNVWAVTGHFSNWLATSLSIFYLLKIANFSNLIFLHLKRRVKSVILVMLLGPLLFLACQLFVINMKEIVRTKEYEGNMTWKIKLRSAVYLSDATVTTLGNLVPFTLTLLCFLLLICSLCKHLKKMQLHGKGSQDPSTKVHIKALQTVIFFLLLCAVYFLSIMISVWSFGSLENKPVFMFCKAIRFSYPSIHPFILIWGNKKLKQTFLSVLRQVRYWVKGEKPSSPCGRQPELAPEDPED
# assay.info: Fluo-4 calcium assay, antagonists of the response of TAS2R44 to steviol glycosides
# Assay type: cell-based
# particulars: inhibition of the response to 2.2 mM stevioside; read-out: IC50 concentration for stevioside
readout.type: IC50 (nM)

compound="CC1CCC(CCCC(=O)O)C1(C)C (stereo not shown)" tgt="TAS2R44 (Homo sapiens, UniProt P59538, L162M)" units_of_measure=nM observed_result=578
